Assay read-out pIC50; system under study: SMOX (Homo sapiens (Human)).
Sequence (Q9NWM0 whole entry): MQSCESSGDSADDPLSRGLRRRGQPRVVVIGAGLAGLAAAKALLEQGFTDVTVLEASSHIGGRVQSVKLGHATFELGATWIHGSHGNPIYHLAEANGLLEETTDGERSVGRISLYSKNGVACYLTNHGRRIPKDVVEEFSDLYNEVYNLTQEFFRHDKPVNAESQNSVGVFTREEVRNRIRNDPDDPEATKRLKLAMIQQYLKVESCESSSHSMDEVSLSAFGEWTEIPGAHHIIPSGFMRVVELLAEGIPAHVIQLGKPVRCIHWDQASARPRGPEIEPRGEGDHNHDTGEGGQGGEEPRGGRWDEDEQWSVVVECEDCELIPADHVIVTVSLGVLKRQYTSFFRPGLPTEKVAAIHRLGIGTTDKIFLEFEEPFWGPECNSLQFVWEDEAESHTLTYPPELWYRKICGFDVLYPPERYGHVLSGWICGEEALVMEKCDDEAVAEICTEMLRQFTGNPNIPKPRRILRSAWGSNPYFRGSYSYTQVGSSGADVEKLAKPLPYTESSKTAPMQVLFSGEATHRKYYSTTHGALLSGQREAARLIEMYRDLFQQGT
Answer as the number alone; pIC50 is minus log10 of concentration in mol/L.

(Q) Give its pIC50 value. Item: `CN1CC(NC(=O)c2nn3c(-c4ccccc4)cc(-c4ccccc4)nc3c2Cl)C1`
(A) 6.97

(Q) Same again, this time with `O=C(NCCCn1ccnc1)c1cc2nc(-c3ccccc3)cc(N3CCCC3)n2n1`
(A) 6.40

(Q) Same again, this time with `O=C(NCCCn1ccnc1)c1cc2nc(-c3ccccc3)cc(-c3cccnc3)n2n1`
(A) 5.90

(Q) Same again, this time with `O=C(NCCc1c[nH]cn1)c1cc2nc(-c3ccccc3)cc(-c3ccccc3)n2n1`
(A) 6.58

====

# Tested System: hPAOX (Homo sapiens (Human), UniProt Q6QHF9)
# Sequence (Q6QHF9 whole entry): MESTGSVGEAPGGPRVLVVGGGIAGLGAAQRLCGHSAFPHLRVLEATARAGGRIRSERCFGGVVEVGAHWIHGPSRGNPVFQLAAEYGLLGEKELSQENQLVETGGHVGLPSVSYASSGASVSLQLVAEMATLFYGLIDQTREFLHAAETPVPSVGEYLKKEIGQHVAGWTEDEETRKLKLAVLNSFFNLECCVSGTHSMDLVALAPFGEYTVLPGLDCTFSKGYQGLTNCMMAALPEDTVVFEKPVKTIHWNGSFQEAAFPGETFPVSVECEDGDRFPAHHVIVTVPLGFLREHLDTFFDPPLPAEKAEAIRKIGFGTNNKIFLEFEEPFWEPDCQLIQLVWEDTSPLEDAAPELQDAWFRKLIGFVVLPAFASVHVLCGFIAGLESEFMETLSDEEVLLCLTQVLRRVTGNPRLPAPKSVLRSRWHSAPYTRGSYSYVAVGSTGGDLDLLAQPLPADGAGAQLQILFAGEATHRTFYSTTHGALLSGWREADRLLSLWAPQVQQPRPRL
# Method: Human PAOX assay (HyPerBlu chemiluminescent detection of hydrogen peroxide)
# Assay type: biochemical
# Test Parameters: 60 pM recombinant PAOX, 20 μM N-acetylspermine substrate
Endpoint Label: pIC50
Answer as the number alone; pIC50 is minus log10 of concentration in mol/L.

(Q) Give its pIC50 value. Item: CC(C)N1CCC(NC(=O)c2cc3nc(-c4ccccc4)cc(-c4ccccc4)n3n2)C1 (stereo not shown)
(A) 5.06

(Q) Same again, this time with `CN1CC(NC(=O)c2nn3c(-c4ccccc4)cc(-c4ccccc4)nc3c2F)C1`
(A) 5.72

(Q) Same again, this time with `CN1CCC(NC(=O)c2cc3nc(-c4ccccc4)cc(N4CCCCC4)n3n2)CC1`
(A) 5.01

(Q) Same again, this time with `CN1CC[C@H](NC(=O)c2cc3nc(-c4ccccc4)cc(-c4ccccc4)n3n2)C1`
(A) 5.88

====

# Tested System: hPAOX (Homo sapiens (Human), UniProt Q6QHF9)
# Method: Human PAOX assay (HyPerBlu chemiluminescent detection of hydrogen peroxide)
# Test Parameters: 60 pM recombinant PAOX, 20 μM N-acetylspermine substrate
Endpoint Label: IC50 (µM)
Write the answer as a number in µM, unit excluded.

(Q) Give its IC50 value. Item: O=C(NCCCn1ccnc1)c1cc2nc(-c3ccccc3)cc(C3CCCO3)n2n1 (centres unmarked) [Example 110]
(A) 3.07

(Q) Same again, this time with O=C(NCCCn1ccnc1)c1cc2nc(-c3ccccc3)cc(-c3ccncc3)n2n1 [Example 97]
(A) 3.61

(Q) Same again, this time with CC(=O)Nc1ccc(-c2cc(-c3ccccc3)nc3cc(C(=O)NCCCn4ccnc4)nn23)cc1 [Example 95]
(A) 2.07

(Q) Same again, this time with CN1CC(NC(=O)c2cc3nc(-c4ccccc4)cc(N4CCC[C@@H](O)C4)n3n2)C1 [Example 67]
(A) 3.6

(Q) Same again, this time with CN1CC(NC(=O)c2cc3nc(-c4ccccc4)cc(-c4ccccc4)n3n2)C1 [Example 23]
(A) 0.96

(Q) Same again, this time with CC(C)Oc1cc(-c2ccccc2)nc2cc(C(=O)NC3CN(C)C3)nn12 [Example 75]
(A) 26.7

(Q) Same again, this time with CN1CC[C@@H](NC(=O)c2cc3nc(-c4ccccc4)cc(N4CCCCC4)n3n2)C1 (single isomer, unassigned) [Example 72]
(A) 7.13

(Q) Same again, this time with COc1ccccc1-c1cc(-c2ccccc2)nc2cc(C(=O)NCCCn3ccnc3)nn12 [Example 80]
(A) 0.289

(Q) Same again, this time with O=C(NC1CCCC(n2ccnc2)C1)c1cc2nc(-c3ccccc3)cc(-c3ccccc3)n2n1 (centres unmarked) [Example 37]
(A) 12.6

(Q) Same again, this time with CN1CC(NC(=O)c2cc3nc(-c4ccccn4)cc(-c4ccccc4)n3n2)C1 [Example 102]
(A) 10

(Q) Same again, this time with O=C(NCCCn1ccnc1)c1cc2nc(-c3ccccc3)cc(C3CCCC3)n2n1 [Example 108]
(A) 0.84

(Q) Same again, this time with CN1CC(NC(=O)c2nn3c(-c4ccccc4)cc(-c4ccccc4)nc3c2C#N)C1 [Example 53]
(A) 13.3

(Q) Same again, this time with CN(CCCn1ccnc1)C(=O)c1cc2nc(-c3ccccc3)cc(-c3ccccc3)n2n1 [Example 11]
(A) 10.3

(Q) Same again, this time with CN1CC(NC(=O)c2nn3c(-c4ccccc4)cc(-c4ccccc4)nc3c2I)C1 [Example 46]
(A) 5.41

(Q) Same again, this time with CN1CC(NC(=O)c2cc3nc(-c4ccccc4)cc(-c4ccccn4)n3n2)C1 [Example 92]
(A) 0.52

(Q) Same again, this time with CN1CC(NC(=O)c2cc3nc(-c4ccc(F)cc4)cc(-c4ccccc4)n3n2)C1 [Example 106]
(A) 0.485

(Q) Same again, this time with CN1CC(NC(=O)c2cc3nc(-c4ccccc4)cc(-c4ncccn4)n3n2)C1 [Example 93]
(A) 0.643

====

Hi there, I'd appreciate the recorded SMOx % recovery CETSA for every entry that follows.
# Tested System: SMOX (Homo sapiens (Human))
# Method: Cellular Thermal Shift Assay (CETSA) with alphaLISA detection of intact SMOX in A549 cells
# Format: cell-based
# Test Parameters: 1 hour compound incubation at 37° C., heated to 55° C. for 5 minutes
Where a name gives a salt, the structure may show the parent alone.
Write the answer as a number in %, unit excluded.

(Q) Give its SMOx % recovery CETSA value. Item: CN1CCC(C)(CNC(=O)c2cc3nc(-c4ccccc4)cc(-c4ccccc4)n3n2)C1 (centres unmarked)
(A) 2

(Q) Same again, this time with `CN(C)CCCNC(=O)c1cc2nc(-c3ccccc3)cc(-c3ccccc3)n2n1`
(A) 0

(Q) Same again, this time with `CN1CC(NC(=O)c2cc3nc(-c4ccccc4)cc(-c4ccccc4)n3n2)C1`
(A) 52

(Q) Same again, this time with `O=C(NCCCn1ccnc1)c1cc2nc(-c3ccccc3)cc(-c3ccc(F)cc3)n2n1`
(A) 40

(Q) Same again, this time with `Cc1nccn1CCCNC(=O)c1cc2nc(-c3ccccc3)cc(-c3ccccc3)n2n1`
(A) 26

(Q) Same again, this time with `O=C(NCCCn1ccnc1)c1cc2nc(-c3ccccc3)cc(N3CCCCC3)n2n1`
(A) 29

(Q) Same again, this time with `O=C(NCCCn1ccnc1)c1cc2nc(-c3ccccc3)cc(-c3ccc(O)cc3)n2n1`
(A) 0

(Q) Same again, this time with `O=C(NCCCn1ccnc1)c1cc2nc(-c3ccccc3)cc(-c3cccc(F)c3)n2n1`
(A) 0

(Q) Same again, this time with CN1CCC(CNC(=O)c2cc3nc(-c4ccccc4)cc(-c4ccccc4)n3n2)C1 (centres unmarked)
(A) 2

(Q) Same again, this time with `O=C(NCCCn1ccnc1)c1cc2nc(-c3ccccc3)cc(-c3ccccn3)n2n1`
(A) 111

(Q) Same again, this time with `O=C(NCCCn1ccnc1)c1cc2nc(-c3ccccc3)cc(N3CCC(F)CC3)n2n1`
(A) 6

(Q) Same again, this time with CN1CC(NC(=O)c2cc3nc(-c4ccccc4)cc(N4CCCCC4)n3n2)C1 [Example 68, trifluoroacetate]
(A) 39

(Q) Same again, this time with `N#Cc1cccc(-c2cc(-c3ccccc3)nc3cc(C(=O)NCCCn4ccnc4)nn23)c1`
(A) 0

(Q) Same again, this time with `N#Cc1ccc(-c2cc(-c3ccccc3)nc3cc(C(=O)NCCCn4ccnc4)nn23)cc1`
(A) 3

(Q) Same again, this time with `CCN1CCC[C@@H]1CNC(=O)c1cc2nc(-c3ccccc3)cc(-c3ccccc3)n2n1`
(A) 4

(Q) Same again, this time with `O=C(NCCCn1ccnc1)c1cc2nc(-c3ccccc3)cc(C3CCCCC3)n2n1`
(A) 24

(Q) Same again, this time with O=C(NCCCn1ccnc1)c1cc2nc(-c3ccccc3)cc(C3CCCCO3)n2n1 (centres unmarked)
(A) 52

====

# Tested System: hPAOX (Homo sapiens (Human))
# Method: Human PAOX assay (HyPerBlu chemiluminescent detection of hydrogen peroxide)
# Test Parameters: 60 pM recombinant PAOX, 20 μM N-acetylspermine substrate
# Experimental: The direct detection of hydrogen peroxide produced from the enzymatic reaction of hSMOX or hPAOX in a biochemical assay format was measured using HyPerBlu (Lumigen, Southfield, MI), a small molecule boronate probe that reacts with hydrogen peroxide to generate a chemiluminescent signal. Inhibition of hSMOX or hPAOX enzyme results in a decrease in luminescence. […]
Structures can show the parent of a compound that is named as a salt.
Endpoint Label: pIC50
Answer as the number alone; pIC50 is minus log10 of concentration in mol/L.

(Q) Observed pIC50 on hPAOX (Homo sapiens (Human)) for `CCN1CCC[C@H]1CNC(=O)c1cc2nc(-c3ccccc3)cc(-c3ccccc3)n2n1` , please.
(A) 5.61

(Q) Same again, this time with `O=C(NCCCc1ccncc1)c1cc2nc(-c3ccccc3)cc(-c3ccccc3)n2n1`
(A) 5.95

(Q) Same again, this time with `O=C(NCCCn1ccnc1)c1cc2nc(-c3ccccc3)cc(-c3ccc(O)cc3)n2n1`
(A) 5.81

(Q) Same again, this time with `O=C(NCCCn1ccnc1)c1cc2nc(-c3ccccc3)cc(N3CCCC3)n2n1`
(A) 5.60

(Q) Same again, this time with CC(CN)CNC(=O)c1cc2nc(-c3ccccc3)cc(-c3ccccc3)n2n1 (centres unmarked) [Example 120, hydrochloride]
(A) 5.91

(Q) Same again, this time with `O=C(NCCc1ccncc1)c1cc2nc(-c3ccccc3)cc(-c3ccccc3)n2n1`
(A) 5.94

(Q) Same again, this time with CN1CCC(NC(=O)c2cc3nc(-c4ccccc4)cc(N4CCCCC4)n3n2)C1 (centres unmarked) [Example 71, trifluoroacetate]
(A) 5.27

(Q) Same again, this time with `CN1CC(N(C)C(=O)c2cc3nc(-c4ccccc4)cc(-c4ccccc4)n3n2)C1`
(A) 4.93
